Field: GI50. Provide a value for each of the molecules that follow.
Tested on: H-MEC-1
Test: Inhibition of cells growth by colorimetric assay (SRB), H-MEC-1
Assay type: cell-based
Conditions: H-MEC-1, 48 hours exposure, SRB
Source text: The finality of these assays is to interrupt the growth of a “in vitro” tumor cell culture by means of a continued exhibition of the cells to the sample to be testing. A colorimetric type of assay, using sulphorhodamine B (SRB) reaction has been adapted for a quantitative measurement of cell growth and viability [following the technique described by Philip Skehan, et al. (1990), New colorimetric cytotoxicity assay for anticancer drug screening, J. Natl. Cancer Inst., 82:1107-1112] […]
Give bare numbers, in nM.

Examples with answers:
molecule: COc1c(C)cc2c(c1O)[C@@H]1C3[C@@H]4SC[C@]5(C(=O)COC[C@@H](c6c7c(c(C)c(OC(C)=O)c64)OCO7)N3[C@@H](O)[C@H](C2)N1C)c1[nH]c2ccccc2c1CCN5C (some centres unmarked) [Compound 39]
quantityUnit: nM
GI50: 58.1

molecule: COc1c(C)cc2c(c1O)[C@@H]1C3[C@@H]4SC[C@]5(C(=O)COC[C@@H](c6c7c(c(C)c(OC(C)=O)c64)OCO7)N3[C@@H](O)[C@H](C2)N1C)c1[nH]c2ccccc2c1CCN5C (some centres unmarked) [Compound 40]
quantityUnit: nM
GI50: 2.45

molecule: COc1c(C)cc2c(c1O)[C@@H]1C3[C@@H]4SC[C@]5(NC(C)Cc6c5[nH]c5ccc(O)cc65)C(=O)COC[C@@H](c5c6c(c(C)c(OC(C)=O)c54)OCO6)N3[C@@H](O)[C@H](C2)N1C (some centres unmarked) [Compound 38]
quantityUnit: nM
GI50: 3.06

molecule: COc1c(C)cc2c(c1O)[C@@H]1C3[C@@H]4SC[C@]5(NC(C)Cc6c5[nH]c5ccc(F)cc65)C(=O)COC[C@@H](c5c6c(c(C)c(OC(C)=O)c54)OCO6)N3[C@@H](O)[C@H](C2)N1C (some centres unmarked) [Compound 42]
quantityUnit: nM
GI50: 40.4

Attention now shifts to the item below.
Request: Endpoint output: GI50 of COc1c(C)cc2c(c1O)[C@@H]1C3[C@@H]4SC[C@]5(NC(C)Cc6c5[nH]c5ccc(F)cc65)C(=O)COC[C@@H](c5c6c(c(C)c(OC(C)=O)c54)OCO6)N3[C@@H](O)[C@H](C2)N1C (some centres unmarked) [Compound 41] . Value?
Result: 4.68

* * *

System: HT29
Test: cells
Type: cell-based
Details: read-out: LC50; HT29, 48 hours exposure, SRB
readoutLabel: CC50

Past entries and their recorded results:
compound: COc1c(C)cc2c(c1O)[C@@H]1C3[C@@H]4SC[C@]5(NC(C)Cc6c5[nH]c5ccc(F)cc65)C(=O)COC[C@@H](c5c6c(c(C)c(OC(C)=O)c54)OCO6)N3[C@@H](O)[C@H](C2)N1C (stereo partly drawn)
val: 12.7 µM
//
compound: COc1c(C)cc2c(c1O)[C@@H]1C3[C@@H]4SC[C@]5(C(=O)COC[C@@H](c6c7c(c(C)c(OC(C)=O)c64)OCO7)N3[C@@H](O)[C@H](C2)N1C)c1[nH]c2ccccc2c1CCN5C (stereo partly drawn)
val: 13 µM

Consider now this further compound.
Request: # get_value(readout='CC50', item= COc1c(C)cc2c(c1O)[C@@H]1C3[C@@H]4SC[C@]5(NC(C)Cc6c5[nH]c5ccc(O)cc65)C(=O)COC[C@@H](c5c6c(c(C)c(OC(C)=O)c54)OCO6)N3[C@@H](O)[C@H](C2)N1C (stereo partly drawn) )
Result: 12.7 µM

* * *

Tested on: PANC-1
Assay: cells
Type: cell-based
Details: read-out: LC50; PANC-1
readoutLabel: CC50 (nM)
Numbers only, in nM.

Request: Sample COc1c(C)cc2c(c1O)[C@@H]1C3[C@@H]4SC[C@]5(NC(C)Cc6c5[nH]c5ccccc65)C(=O)COC[C@@H](c5c6c(c(C)c(OC(C)=O)c54)OCO6)N3[C@@H](O)[C@H](C2)N1C (some centres unmarked) [Compound 43] — what was its CC50?
Result: 39

* * *

Test system: H-MEC-1
Assay: Inhibition of cells growth by colorimetric assay (SRB), H-MEC-1
Type: cell-based
Conditions: read-out: LC50; H-MEC-1, 48 hours exposure, SRB
Kindly state CC50 for each of the entries shown.
Answers are plain numbers, in µM.

molecule: COc1c(C)cc2c(c1O)[C@@H]1C3[C@@H]4SC[C@]5(NC(C)Cc6c5[nH]c5ccc(O)cc65)C(=O)COC[C@@H](c5c6c(c(C)c(OC(C)=O)c54)OCO6)N3[C@@H](O)[C@H](C2)N1C (stereo partly shown)
quantityUnit: µM
val: 12.7

Look at each molecule and report its CC50.
1. COc1c(C)cc2c(c1O)[C@@H]1C3[C@@H]4SC[C@]5(C(=O)COC[C@@H](c6c7c(c(C)c(OC(C)=O)c64)OCO7)N3[C@@H](O)[C@H](C2)N1C)c1[nH]c2ccccc2c1CCN5C (stereo partly shown) [Compound 40]
2. COc1c(C)cc2c(c1O)[C@@H]1C3[C@@H]4SC[C@]5(NC(C)Cc6c5[nH]c5ccc(F)cc65)C(=O)COC[C@@H](c5c6c(c(C)c(OC(C)=O)c54)OCO6)N3[C@@H](O)[C@H](C2)N1C (stereo partly shown)
3. COc1c(C)cc2c(c1O)[C@@H]1C3[C@@H]4SC[C@]5(C(=O)COC[C@@H](c6c7c(c(C)c(OC(C)=O)c64)OCO7)N3[C@@H](O)[C@H](C2)N1C)c1[nH]c2ccccc2c1CCN5C (stereo partly shown) [Compound 39]

Result:
[0.0115, 12.7, 13]

* * *

Give CC50 for every item shown.
Test system: SK-BR3
Assay: cells
Assay type: cell-based
Conditions: read-out: LC50; SK-BR3
Give bare numbers, in nM.

compound: COc1c(C)cc2c(c1O)[C@@H]1C3[C@@H]4SC[C@]5(NC(C)Cc6c5[nH]c5ccccc65)C(=O)COC[C@@H](c5c6c(c(C)c(OC(C)=O)c54)OCO6)N3[C@@H](O)[C@H](C2)N1C (some centres unmarked) [Compound 44]
quantityUnit: nM
val: 177

Request: I have this compound here, COc1c(C)cc2c(c1O)[C@@H]1C3[C@@H]4SC[C@]5(NC(C)Cc6c5[nH]c5ccccc65)C(=O)COC[C@@H](c5c6c(c(C)c(OC(C)=O)c54)OCO6)N3[C@@H](O)[C@H](C2)N1C (some centres unmarked) [Compound 43] , and I need its recorded CC50.
Result: 41.1

* * *

Tested on: IGROV
Assay: cells
Type: cell-based
Conditions: Homo sapiens, 48 h, 48 hours exposure, SRB
readoutLabel: GI50 (nM)
Answers are plain numbers, in nM.

Worked set:
compound: COc1c(C)cc2c(c1O)[C@@H]1C3[C@@H]4SC[C@]5(C(=O)COC[C@@H](c6c7c(c(C)c(OC(C)=O)c64)OCO7)N3[C@@H](C#N)[C@H](C2)N1C)c1[nH]c2ccccc2c1CCN5C (stereo partly drawn)
val: 226
--
compound: COc1c(C)cc2c(c1O)[C@@H]1C3[C@@H]4SC[C@]5(NC(C)Cc6c5[nH]c5ccc(F)cc65)C(=O)COC[C@@H](c5c6c(c(C)c(OC(C)=O)c54)OCO6)N3[C@@H](O)[C@H](C2)N1C (stereo partly drawn)
val: 1.94

Request: Field request: GI50 | item: C=COC(=O)Oc1c(C)c2c(c3c1[C@H]1SC[C@]4(NCCC5c6ccccc6NC54)C(=O)OC[C@@H]3N3C1[C@H]1c4c(cc(C)c(OC)c4OC(=O)OC=C)C[C@@H]([C@@H]3C#N)N1C)OCO2 (stereo partly drawn)
Result: 21.7

* * *

Conditions: s9, 60 min, 1 μM
readoutLabel: Human Liver S9 Metabolic Stability (% remaining)
One number for each entry, in % remaining.

Worked cases, Human Liver S9 Metabolic Stability (% remaining) given:
compound: COc1c(C)cc2c(c1O)[C@@H]1C3[C@@H]4SC[C@]5(NCCc6c5[nH]c5c(OCc7ccccc7)cccc65)C(=O)COC[C@@H](c5c6c(c(C)c(OC(C)=O)c54)OCO6)N3[C@@H](O)[C@H](C2)N1C (stereo partly drawn) [Compound 28]
val: 33
--
compound: COc1c(C)cc2c(c1O)[C@@H]1C3[C@@H]4SC[C@]5(NCCc6c5[nH]c5ccc(O)cc65)C(=O)COC[C@@H](c5c6c(c(C)c(OC(C)=O)c54)OCO6)N3[C@@H](O)[C@H](C2)N1C (stereo partly drawn) [Compound 31]
val: 17

Proceeding to the next compound to report its Human Liver S9 Metabolic Stability (% remaining).
Request: Using the record for COc1ccc2c3c([nH]c2c1)[C@@]1(CS[C@@H]2c4c(OC(C)=O)c(C)c5c(c4[C@H](COCC1=O)N1C2[C@H]2c4c(cc(C)c(OC)c4O)C[C@@H]([C@@H]1O)N2C)OCO5)NCC3 (stereo partly drawn) [Compound 34] , report its Human Liver S9 Metabolic Stability (% remaining).
Result: 24
